Target: T1, human CD8A-Fc (in house) (human, UniProt P01732 22-182, limits assumed)
T1 construct: captured by goat anti-human Fc on the ProteOn chip; also called hCD8A-Fc; recombinant human CD8 alpha; not shown: linker/tag and Fc of human IgG1
T1 sequence (P01732 22-182 limits assumed): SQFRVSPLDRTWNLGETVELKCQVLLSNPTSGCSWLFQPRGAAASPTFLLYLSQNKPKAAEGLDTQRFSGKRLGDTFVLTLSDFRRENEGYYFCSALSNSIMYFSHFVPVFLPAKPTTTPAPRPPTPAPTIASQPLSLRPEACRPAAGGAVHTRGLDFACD
Assay: SPR (ProteOn), captured hCD8A-Fc
Measure Name: koff (s⁻¹)

(1) P283DR9P1364_G9 (designed binder, FN3 domain) LPAPKNLVVSRVTEDSARLSWTAPDAAFDSFGIWYPEWPVGGEAIVLTVPGSERSYDLTGLKPGTEYWVNISGVKGGEYSFPLSAIFTT
(2) P283BR9P1363_E6 (designed binder, FN3 domain) LPAPKNLVVSRVTEDSARLSWYARKFISPFDSFLIQYQESEKVGEAIVLTVPGSERSYDLTGLKPGTEYTVSIYGVDVKWEGNRPVASNPLSAIFTT
Q: // pick min by koff: 1 , 2 Let me know the label of the one you choose.
Ans: 2

Where these numbers come from: patent US20210032312A1
